# Test system: HepG2
# experimental-details: GSK_TCMDC: Percent inhibition of human HepG2 cell line. Test compounds present at 10uM.
# Format: functional
readout: Inhibition (%)

>>> experimental_result("Cl.O=S(=O)(c1ccc(OCc2ccc(Cl)cc2)cc1)c1cc2c(c(-c3ccc(F)cc3)c1)CCN(CC1CC1)CC2")
0
>>> experimental_result("CCCCc1cc(=O)oc2cc(C)cc(OCc3ccccc3F)c12")
8
>>> experimental_result("Cc1ccc(-n2nc(-c3ccccc3)c3cc(C(=O)NCCN)sc32)cc1")
28
>>> experimental_result("CC(C)CN1CCCN(Cc2cccc(NC(=O)c3cc4ccccc4s3)c2)CC1.O=C(O)C(F)(F)F")
5
>>> experimental_result("COc1cc2nc(N3CCC(CNC(=O)c4ccc(-c5ccc(C(F)(F)F)cc5)cc4)CC3)nc(N)c2cc1OC")
94
>>> experimental_result("O=C(Nc1cccc(CN2CCCN(Cc3cccc(O)c3)CC2)c1)c1ccc(Cl)c(Cl)c1.O=C(O)C(F)(F)F")
25
>>> experimental_result("COc1ccc(COc2cc(NCCCN)nc3ccccc23)cc1")
3
>>> experimental_result("COc1ccc(C)c(Nc2ccnc(Nc3ccc(-c4cnc[nH]4)cc3)n2)c1.Cl")
40
>>> experimental_result("COc1cc(F)c2ncc(Cl)c([C@H](O)CN3CCC(NCc4ccc5c(n4)NC(=O)CO5)CC3)c2c1.Cl")
14
>>> experimental_result("Cc1cccc2nc(-c3ccc(-c4cccc(CNCCc5ccncc5)c4)cc3)[nH]c12.O=C(O)C(F)(F)F")
28
>>> experimental_result("Cc1c(Cc2ccccc2Br)cnc2nc(N)nc(N)c12.Cl")
67
>>> experimental_result("OC(CNc1ccnc(Nc2ccc(Cl)cc2)n1)c1cccc(C(F)(F)F)c1 (centres undefined)")
9
>>> experimental_result("CC1CN(c2cnn(C/C=C/c3ccc(NC(=O)c4ccc(Cl)cc4)cc3)c(=O)c2Cl)CC(C)N1.O=C(O)C(F)(F)F (centres undefined)")
25
>>> experimental_result("CN(C)CCOc1ccc2nc(-c3cccc(OCc4ccccc4)c3)[nH]c2c1C#N")
48
>>> experimental_result("O=C(Nc1ccccc1F)NC1CCN(c2ccnc(Nc3ccc(F)cc3)n2)C1 (centres undefined)")
0
>>> experimental_result("CC1(C)N=C(N)N=C(N)N1c1ccc([N+](=O)[O-])cc1.Cl")
3
>>> experimental_result("CC(C)C[C@@H](/C=N/N1CCOC1=O)NC(=O)[C@H](CC(C)C)NC(=O)c1ccc(OCCN2CCOCC2)cc1")
5
>>> experimental_result("COc1ccc(-n2ccnc2SCC(=O)Nc2cc(C)ccc2C)c(OC)c1")
2
>>> experimental_result("Cl.O=C(NC1CCC(CCN2Cc3cccc(F)c3C2)CC1)c1cccc(-c2cccnc2)c1 (centres undefined)")
16
>>> experimental_result("O=C(Nc1ccc(Cl)cc1F)N[C@H]1CCN(CCCCCNC(=O)C2CC2c2ccc(Cl)c(Cl)c2)C1 (some centres undefined)")
29
>>> experimental_result("O=S(=O)(Nc1cccc(CCN2CCC(N3CCCCC3)CC2)c1)c1ccc(Oc2ccccc2)nc1")
8
>>> experimental_result("Cc1noc(C)c1-c1ccc2c(Nc3ccccc3C(C)(C)C)c(C(=O)NC3CCCC3)cnc2c1.Cl")
27
>>> experimental_result("Oc1ccc(Cl)cc1CN1CCCC(COC(c2ccc(F)cc2)c2ccc(F)cc2)C1 (centres undefined)")
20
>>> experimental_result("CC(=O)c1ccc(NC(=O)CSc2nc(-c3ccccc3Cl)ns2)cc1")
0

----------
# Test system: HepG2
# experimental-details: GSK_TCMDC: Percent inhibition of human HepG2 cell line. Test compounds present at 10uM.
# Format: functional
Label scheme for Inhibition: lower than 20% is not fulfilled, 20% and above is fulfilled.

>>> label_class("CC(C)CCn1c(Sc2ccc([N+](=O)[O-])cc2C(F)(F)F)nnc1-c1ccccc1Cl")
"not fulfilled"
>>> label_class("CNC(=O)c1cnc(Nc2ccc(N3CCN(C)CC3)cc2)nc1Nc1cccc(OC)c1.O=C(O)C(F)(F)F")
"not fulfilled"
>>> label_class("CNC(=O)c1cnc(Nc2ccc(N3CCN(C)CC3)c(C)c2)nc1NC.Cl")
"not fulfilled"
>>> label_class("Cn1nc(-c2ccc(CNC3CCc4ccccc43)cc2)c2cnc(NCCN3CCCC3)nc21 (stereo not drawn)")
"fulfilled"
>>> label_class("CS(=O)(=O)c1ccc2c(c1)CCN(CCC1CCC(NC(=O)C(=Cc3ccc(Cl)cc3Cl)c3ccc(-c4ccccc4)cc3)CC1)CC2 (stereo not drawn)")
"fulfilled"
>>> label_class("O=C(CSc1nccn1Cc1ccco1)Nc1cc(C(F)(F)F)ccc1Cl")
"not fulfilled"
>>> label_class("COc1ccc2nccc([C@@H](O)CN3CCC(NCCOc4c(C)cccc4F)CC3)c2c1.O=C(O)C(=O)O")
"not fulfilled"
>>> label_class("COc1ccc(CNCc2ccc(-c3ccc(-c4nc5cc(C(F)(F)F)ccc5[nH]4)s3)cc2)cc1.O=C(O)C(F)(F)F")
"fulfilled"
>>> label_class("Clc1ccc(-c2cc3c(NCc4ccncc4)nccc3s2)cc1")
"fulfilled"
>>> label_class("Cn1cccc1C(=O)Nc1cccc(-c2nn3ccccc3c2-c2ccnc(Nc3ccc4c(c3)OCCO4)n2)c1")
"not fulfilled"
>>> label_class("Cc1cc(NCCc2cccc(F)c2)nc(NC(=N)Nc2cccc(C(F)(F)F)c2)n1")
"fulfilled"
>>> label_class("Cn1cc(CCNc2ccnc(N3CCC(c4ncc[nH]4)CC3)n2)c2ccccc21")
"not fulfilled"

----------
# Tested on: HepG2
# experimental-details: GSK_TCMDC: Percent inhibition of human HepG2 cell line. Test compounds present at 10uM.
# Type: functional
Grouping rule (Inhibition): low interval = under 10%, middle interval = from 10% up to 40%, high interval = 40% and over

>>> label_class("CCc1cn2c3c(cc(C(=O)N[C@@H](Cc4cc(F)cc(F)c4)[C@H](O)CNC4CC4)cc13)N(C)S(=O)(=O)CC2.O=CO")
"low interval"
>>> label_class("COc1ccccc1C1CCN(C2CCC(NC(=O)/C=C/c3cc(F)cc(F)c3)CC2)CC1 (centres undefined)")
"high interval"
>>> label_class("CC1CN(c2cnn(Cc3ccc(NC(=O)Nc4ccc(F)cc4[N+](=O)[O-])cc3)c(=O)c2Cl)CC(C)N1.O=C(O)C(F)(F)F (centres undefined)")
"low interval"
>>> label_class("CN1CCCC1CCNc1ncc2c(-c3ccc(NC(=O)Nc4cc(C(F)(F)F)ccc4F)cc3)nn(C)c2n1.O=C(O)C(F)(F)F (centres undefined)")
"high interval"
>>> label_class("COc1ccc(S(=O)(=O)Nc2ccc(C(=O)NCc3ccccc3C(F)(F)F)cc2)cc1N1CCN(CC2CC2)CC1.O=C(O)C(F)(F)F")
"middle interval"
>>> label_class("Cc1ccc(-c2cc(C(=O)Nc3ccc(S(=O)(=O)N4CCCCC4)cc3)[nH]n2)c(O)c1")
"low interval"
>>> label_class("Oc1cccc2ccc(Nc3ccccn3)nc12")
"high interval"
>>> label_class("Cc1noc(C)c1-c1cccc(CNCc2cccc(-c3cccc(-c4nc5ccccc5[nH]4)c3)c2)c1.O=C(O)C(F)(F)F")
"middle interval"
>>> label_class("CN1CC[C@@H](Oc2cc(NC(=O)Nc3ccccc3Br)ccc2Cl)C1")
"middle interval"
>>> label_class("Cc1cccc(-c2ccc3c(c2)CC(NCc2cccc(-n4ccnc4)c2)C3)c1 (centres undefined)")
"middle interval"
>>> label_class("FC(F)(F)c1ccc(/C=C/c2cncnc2Nc2ccc3[nH]c(Cc4ccccc4)nc3c2)cc1")
"middle interval"
>>> label_class("Cc1onc(-c2ccccc2)c1C(=O)Nc1nc(-c2ccccn2)nc2ccsc12")
"middle interval"
>>> label_class("CCOC(=O)c1c(NC(=O)c2ccccc2)sc2c(O)c(CN(CC)CC)ccc12.Cl")
"low interval"
>>> label_class("Cc1ccc(-c2nnc(Nc3ccc(OCC(N)=O)cc3)c3ccccc23)cc1S(=O)(=O)NCC1CCCO1 (centres undefined)")
"low interval"
>>> label_class("Cc1nc(C)c(CC(=O)Nc2ccc(-c3cccc(-c4nc5cc(C(F)(F)F)ccc5[nH]4)c3)cc2)s1")
"high interval"
>>> label_class("CC(C)COc1ccc(C(O)C(CN2CCCCC2)c2ccccc2)cc1 (centres undefined)")
"middle interval"
>>> label_class("COc1ccc(-c2csc3ncnc(Cl)c23)cc1")
"low interval"
>>> label_class("NC1CCCN(Cc2ccc(-c3cccc(-c4nc5cc(F)ccc5[nH]4)c3)cc2)C1.O=C(O)C(F)(F)F (centres undefined)")
"high interval"
>>> label_class("COc1ccc2nccc([C@@H](O)CN3CCC(NC(=O)/C=C/c4cccc(C)c4)CC3)c2c1")
"middle interval"
>>> label_class("CCc1c[nH]c2c(N3CCCS3(=O)=O)cc(C(=O)N[C@@H](Cc3ccccc3)[C@H](O)CNC(C)(C)c3cccc(C(F)(F)F)c3)cc12.O=CO")
"middle interval"
>>> label_class("COc1ccc(Cn2ncc3c4c(N)nc(N)nc4ccc32)cc1OC")
"high interval"
>>> label_class("COc1ccc(-c2ccc(NC(=O)c3ccc(Cl)cc3)cc2)cc1CN(C)CCN(C)C.O=C(O)C(F)(F)F")
"middle interval"
>>> label_class("COc1cc2nc(N3CCC(CNC(=O)c4ccc(NC(=O)c5ccc(Cl)cc5)cc4)CC3)nc(N)c2cc1OC")
"high interval"
